The values you see were collected from patent US9296757B2.

Biological target: human full-length MKNK1 (Homo sapiens (Human), UniProt Q9BUB5, T344D)
Sequence (Q9BUB5 other isoform, or with tags, fused parts or gaps T344D): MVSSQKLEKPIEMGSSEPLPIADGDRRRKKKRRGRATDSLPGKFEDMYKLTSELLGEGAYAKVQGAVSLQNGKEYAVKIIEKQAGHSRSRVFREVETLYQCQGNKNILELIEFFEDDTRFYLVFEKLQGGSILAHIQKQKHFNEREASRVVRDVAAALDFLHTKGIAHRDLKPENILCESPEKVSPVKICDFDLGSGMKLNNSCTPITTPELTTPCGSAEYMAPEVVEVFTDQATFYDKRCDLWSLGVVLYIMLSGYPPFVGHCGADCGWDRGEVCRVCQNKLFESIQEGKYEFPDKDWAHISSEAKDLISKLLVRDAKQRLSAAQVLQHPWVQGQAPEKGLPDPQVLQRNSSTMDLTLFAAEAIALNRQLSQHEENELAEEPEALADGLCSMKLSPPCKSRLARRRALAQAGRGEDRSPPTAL
Assay: MKNK1 kinase high ATP assay (TR-FRET)
Conditions: high ATP (2 mM final), 15 min preincubation with enzyme
Recorded measurements of pIC50, one per entry
Scale explanation: pIC50 corresponds to minus log10 of a concentration expressed in moles per litre.

Past entries and their recorded results:
# compound, experimental-result
records = [
    ("CCN(CCOC)C(=O)C1CCc2c(sc3ncnc(Nc4cc5sc(=O)[nH]c5cc4OC)c23)C1 (racemic) [Example 90]", 9.00),
    ("O=C(C1CCc2c(sc3ncnc(Nc4ccc5[nH]c(=O)sc5c4)c23)C1)N1CCN(CC2CC2)CC1 (racemic) [Example 78]", 7.47),
    ("COc1cc2[nH]c(=O)sc2cc1Nc1ncnc2sc3c(c12)CCC(C(=O)N(C)C)C3 (racemic) [Example 85]", 8.40),
]

Fill in the blank: the reported pIC50 of COCCN1CCN(C(=O)C2CCc3c(sc4ncnc(Nc5ccc6[nH]c(=O)sc6c5)c34)C2)CC1 (racemic) [Example 72] is ____. 7.36

What value of pIC50 has been reported for the following compound? O=C(NCc1cccc(C(F)(F)F)c1)C1CCc2c(sc3ncnc(Nc4ccc5[nH]c(=O)sc5c4)c23)C1 (racemic) [Example 10] 7.96

Please give the measured pIC50 for this compound: CN1CC2CC1CN2C(=O)C1CCc2c(sc3ncnc(Nc4ccc5[nH]c(=O)sc5c4)c23)C1 (racemic) [Example 74] 7.33

What pIC50 value was documented for this compound, CN(C)CCN(Cc1ccccc1)C(=O)C1CCc2c(sc3ncnc(Nc4ccc5[nH]c(=O)sc5c4)c23)C1 (racemic) [Example 36] ? 8.05

====

Reported pIC50 by item:
Target: human full-length MKNK1 (Homo sapiens (Human), UniProt Q9BUB5, T344D)
Test: MKNK1 kinase high ATP assay (TR-FRET)
Details: high ATP (2 mM final), 15 min preincubation with enzyme
# log scale: pIC50 equals minus log10 of the concentration in mol/L

Below, each entry is followed by its recorded pIC50 result.
# compound, pIC50
rows = [
    ("O=c1[nH]c2ccc(Nc3ncnc4sc5c(c34)CCC(CO)C5)cc2s1 (racemic)", 7.22),
    ("COc1cc2[nH]c(=O)sc2cc1Nc1ncnc2sc3c(c12)CCC(C(=O)NC(C)C)C3 (racemic)", 8.40),
    ("O=C(C1CCc2c(sc3ncnc(Nc4ccc5[nH]c(=O)sc5c4)c23)C1)N1CCN(CCCO)CC1 (racemic)", 7.41),
]

pIC50 lookup needed for CC(C)CN(C)C(=O)C1CCc2c(sc3ncnc(Nc4ccc5[nH]c(=O)sc5c4)c23)C1 (racemic) , thanks. 7.20

Which pIC50 is listed for CN(CCCCO)C(=O)C1CCc2c(sc3ncnc(Nc4ccc5[nH]c(=O)sc5c4)c23)C1 (racemic) ? 7.47

Quick check: pIC50 of CC(=O)N(C)C1CCN(C(=O)C2CCc3c(sc4ncnc(Nc5ccc6[nH]c(=O)sc6c5)c34)C2)C1 (racemic) ? 7.49

Returns the measured pIC50 for the input compound. Input: CCN(C(=O)C1CCc2c(sc3ncnc(Nc4cc5sc(=O)[nH]c5cc4OC)c23)C1)C(C)C (racemic) 8.52

====

Molecular target: human full-length MKNK1 (Homo sapiens (Human), UniProt Q9BUB5, T344D)
Assay: MKNK1 kinase high ATP assay (TR-FRET)
Details: high ATP (2 mM final), 15 min preincubation with enzyme
endpoint-label: pIC50
Quick note: pIC50 values are minus log10 of concentrations in mol/L.

Answered cases to consult:
# compound, pIC50
records = [
    ("O=C(NCC(F)(F)F)C1CCc2c(sc3ncnc(Nc4ccc5[nH]c(=O)sc5c4)c23)C1 (racemic)", 7.07),
    ("CCOC(=O)C1CCc2c(sc3ncnc(Nc4ccc5[nH]c(=O)sc5c4)c23)C1 (racemic)", 7.33),
]

Provide the documented pIC50 with human full-length MKNK1 (Homo sapiens (Human), UniProt Q9BUB5, T344D) as the system for O=C(NCCC(F)(F)F)C1CCc2c(sc3ncnc(Nc4ccc5[nH]c(=O)sc5c4)c23)C1 (racemic) 7.38

Find the measured pIC50: item COc1ccc(N(C)C(=O)C2CCc3c(sc4ncnc(Nc5ccc6[nH]c(=O)sc6c5)c34)C2)cc1 (racemic) , target or system human full-length MKNK1 (Homo sapiens (Human), UniProt Q9BUB5, T344D). 7.33

====

Biological target: human full-length MKNK1 (Homo sapiens (Human), UniProt Q9BUB5, T344D)
Experiment: MKNK1 kinase high ATP assay (TR-FRET)
Settings: high ATP (2 mM final), 15 min preincubation with enzyme
endpoint-label: log10 IC50 (log10 of the value in nM)
Scale: decimal log of IC50, IC50 in nM.

# compound, endpoint-label, experimental-result
rows = [
    ("CN(CC#N)C(=O)C1CCc2c(sc3ncnc(Nc4ccc5[nH]c(=O)sc5c4)c23)C1 (racemic)", "log10 IC50", 1.65),
    ("O=C(C1CCc2c(sc3ncnc(Nc4ccc5[nH]c(=O)sc5c4)c23)C1)N1CCN(c2ccccn2)CC1 (racemic)", "log10 IC50", 1.81),
    ("CC(=O)N1CCN(C(=O)C2CCc3c(sc4ncnc(Nc5ccc6[nH]c(=O)sc6c5)c34)C2)CC1 (racemic)", "log10 IC50", 1.67),
    ("N[C@@H](CCO)C(=O)NCC1CCc2c(sc3ncnc(Nc4ccc5[nH]c(=O)sc5c4)c23)C1 (mixture of isomers)", "log10 IC50", 1.96),
    ("O=C(C1CCc2c(sc3ncnc(Nc4ccc5[nH]c(=O)sc5c4)c23)C1)N1CCCC(F)C1 (racemic)", "log10 IC50", 1.91),
    ("CC1CN(C(=O)C2CCc3c(sc4ncnc(Nc5ccc6[nH]c(=O)sc6c5)c34)C2)CC(C)O1 (racemic)", "log10 IC50", 1.51),
    ("CC1CCN(C(=O)C2CCc3c(sc4ncnc(Nc5ccc6[nH]c(=O)sc6c5)c34)C2)CC1 (racemic)", "log10 IC50", 1.63),
    ("CCN(C)C(=O)C1CCc2c(sc3ncnc(Nc4ccc5[nH]c(=O)sc5c4)c23)C1 (racemic)", "log10 IC50", 1.60),
]

For the compound shown here, O=C(O)C1CCc2c(sc3ncnc(Nc4ccc5[nH]c(=O)sc5c4)c23)C1 (racemic) , give the reported log10 IC50. 2.03

Which value of log10 IC50 has been reported for CNC(=O)C1CCc2c(sc3ncnc(Nc4ccc5[nH]c(=O)sc5c4)c23)C1 (racemic) in the records? 1.96

Which log10 IC50 reading was recorded for the compound CC(C)N(CCO)C(=O)C1CCc2c(sc3ncnc(Nc4ccc5[nH]c(=O)sc5c4)c23)C1 (racemic) ? 1.45

// returns reported log10 IC50 for input CCCCN(CC#N)C(=O)C1CCc2c(sc3ncnc(Nc4ccc5[nH]c(=O)sc5c4)c23)C1 (racemic) 1.30

Requested read-out: log10 IC50. Entry: COCC1CCCN1C(=O)C1CCc2c(sc3ncnc(Nc4ccc5[nH]c(=O)sc5c4)c23)C1 (racemic) 1.61

What value of measured log10 IC50 is listed for N#CC1CCN(C(=O)C2CCc3c(sc4ncnc(Nc5ccc6[nH]c(=O)sc6c5)c34)C2)CC1 (racemic) ? 1.73

// query log10 IC50 value for entry CC(O)C(=O)NCC1CCc2c(sc3ncnc(Nc4ccc5[nH]c(=O)sc5c4)c23)C1 (racemic) 1.92

====

Molecular target: human full-length MKNK1 (Homo sapiens (Human), UniProt Q9BUB5, T344D)
Test: MKNK1 kinase high ATP assay (TR-FRET)
Conditions: high ATP (2 mM final), 15 min preincubation with enzyme
endpoint-label: IC50 (nM)
Answer with a number only, understood to be in nM.

Some solved entries appear below for comparison.
# molecule, tgt, experimental-result
measured = [
    ("CCN(CCC#N)C(=O)C1CCc2c(sc3ncnc(Nc4ccc5[nH]c(=O)sc5c4)c23)C1 (racemic)", "human full-length MKNK1 (Homo sapiens (Human), UniProt Q9BUB5, T344D)", 38),
    ("CN(CCC#N)C(=O)C1CCc2c(sc3ncnc(Nc4ccc5[nH]c(=O)sc5c4)c23)C1 (racemic)", "human full-length MKNK1 (Homo sapiens (Human), UniProt Q9BUB5, T344D)", 65),
    ("CCCN(CCOC)C(=O)C1CCc2c(sc3ncnc(Nc4cc5sc(=O)[nH]c5cc4OC)c23)C1 (racemic)", "human full-length MKNK1 (Homo sapiens (Human), UniProt Q9BUB5, T344D)", 2),
    ("CN(CC1CCCO1)C(=O)C1CCc2c(sc3ncnc(Nc4ccc5[nH]c(=O)sc5c4)c23)C1 (racemic)", "human full-length MKNK1 (Homo sapiens (Human), UniProt Q9BUB5, T344D)", 27),
    ("CN1CCN(C(=O)C2CCc3c(sc4ncnc(Nc5ccc6[nH]c(=O)sc6c5)c34)C2)CC1CCO (racemic)", "human full-length MKNK1 (Homo sapiens (Human), UniProt Q9BUB5, T344D)", 34),
    ("CCN1CCN(C(=O)C2CCc3c(sc4ncnc(Nc5ccc6[nH]c(=O)sc6c5)c34)C2)CC1 (racemic)", "human full-length MKNK1 (Homo sapiens (Human), UniProt Q9BUB5, T344D)", 36),
]

// map O=C(C1CCc2c(sc3ncnc(Nc4ccc5[nH]c(=O)sc5c4)c23)C1)N1CCC(O)C1 (racemic) to recorded IC50 (system: human full-length MKNK1 (Homo sapiens (Human), UniProt Q9BUB5, T344D)) 75

Param readout = IC50; param system = human full-length MKNK1 (Homo sapiens (Human), UniProt Q9BUB5, T344D); param query = O=C(NCc1cccc(F)c1)C1CCc2c(sc3ncnc(Nc4ccc5[nH]c(=O)sc5c4)c23)C1 (racemic) ; response: value 25

Param readout = IC50; param system = human full-length MKNK1 (Homo sapiens (Human), UniProt Q9BUB5, T344D); param query = O=C(C1CCc2c(sc3ncnc(Nc4ccc5[nH]c(=O)sc5c4)c23)C1)N1CC(N2CCCCC2)C1 (racemic) ; response: value 38

Form field - read-out: IC50; system: human full-length MKNK1 (Homo sapiens (Human), UniProt Q9BUB5, T344D); submitted item: O=C(C1CCc2c(sc3ncnc(Nc4ccc5[nH]c(=O)sc5c4)c23)C1)N1CC2(COC2)C1 (racemic) 52

Recorded IC50 for N#CC1CCCN(C(=O)C2CCc3c(sc4ncnc(Nc5ccc6[nH]c(=O)sc6c5)c34)C2)C1 (racemic) with human full-length MKNK1 (Homo sapiens (Human), UniProt Q9BUB5, T344D), please? 32

Record lookup: for human full-length MKNK1 (Homo sapiens (Human), UniProt Q9BUB5, T344D), what IC50 belongs to O=C(C1CCc2c(sc3ncnc(Nc4ccc5[nH]c(=O)sc5c4)c23)C1)N1CCN2CCCCC2C1 (racemic) ? 27

// map CCCCN(C)C(=O)C1CCc2c(sc3ncnc(Nc4cc5sc(=O)[nH]c5cc4OC)c23)C1 (racemic) to recorded IC50 (system: human full-length MKNK1 (Homo sapiens (Human), UniProt Q9BUB5, T344D)) 1.9
